Assay: Inhibition of aminopeptidase N
measure.name: pIC50
Field format: numeric only.

Example cases with answers are listed next.
[
  {
    "substance.smiles": "O=C(NCCCC[C@H](NC(=O)c1ccc([N+](=O)[O-])cc1)C(=O)NO)OCc1ccccc1",
    "pIC50": 3.97
  },
  {
    "substance.smiles": "O=C(NCCCC[C@H](NC(=O)c1ccc(Cl)cc1Cl)C(=O)O)OCc1ccccc1",
    "pIC50": 3.9
  },
  {
    "substance.smiles": "O=C(NCCCC[C@H](NC(=O)c1cccnc1)C(=O)NO)OCc1ccccc1",
    "pIC50": 4.03
  },
  {
    "substance.smiles": "O=C(NCCCC[C@H](NC(=O)c1ccncc1)C(=O)NO)OCc1ccccc1",
    "pIC50": 4.04
  },
  {
    "substance.smiles": "O=C(NCCCC[C@H](NC(=O)c1cccnc1)C(=O)O)OCc1ccccc1",
    "pIC50": 3.78
  },
  {
    "substance.smiles": "O=C(NCCCC[C@H](NC(=O)c1cccs1)C(=O)O)OCc1ccccc1",
    "pIC50": 2.9
  },
  {
    "substance.smiles": "O=C(NCCCC[C@H](NC(=O)c1ccncc1)C(=O)O)OCc1ccccc1",
    "pIC50": 3.54
  },
  {
    "substance.smiles": "O=C(NCCCC[C@H](NC(=O)c1cccc([N+](=O)[O-])c1)C(=O)O)OCc1ccccc1",
    "pIC50": 3.96
  }
]

Return reported pIC50; argument: O=C(NCCCC[C@H](NC(=O)c1ccco1)C(=O)O)OCc1ccccc1
2.95

Likewise for O=C(NCCCC[C@H](NC(=O)c1cccs1)C(=O)NO)OCc1ccccc1 ?
3.8

###

Assay: Inhibition of aminopeptidase N
Parameter pIC50: see the listing below.
The read-out pIC50 is expressed as -log10 of concentration in moles per litre.

Example cases with answers are listed next.
[
  {
    "substance.smiles": "O=C(NCCCC[C@H](NC(=O)c1cccc([N+](=O)[O-])c1)C(=O)NO)OCc1ccccc1",
    "pIC50": 4.02
  },
  {
    "substance.smiles": "O=C(NCCCC[C@H](NC(=O)c1cccc([N+](=O)[O-])c1)C(=O)O)OCc1ccccc1",
    "pIC50": 3.96
  },
  {
    "substance.smiles": "O=C(NCCCC[C@H](NC(=O)c1cccs1)C(=O)O)OCc1ccccc1",
    "pIC50": 2.90
  },
  {
    "substance.smiles": "O=C(NCCCC[C@H](NC(=O)c1ccco1)C(=O)NO)OCc1ccccc1",
    "pIC50": 3.80
  },
  {
    "substance.smiles": "O=C(NCCCC[C@H](NC(=O)c1cccs1)C(=O)NO)OCc1ccccc1",
    "pIC50": 3.80
  }
]

Now for the molecule whose pIC50 we want.
Return reported pIC50; argument: O=C(NCCCC[C@H](NC(=O)c1ccc(Br)cc1)C(=O)O)OCc1ccccc1
3.73

###

Parameter log10(IC50): see the listing below.
Assay: Inhibition of aminopeptidase N
// units: µM (pre-log); metric: IC50; scale: log10

Example cases with answers are listed next.
[
  {
    "substance.smiles": "O=C(NCCCC[C@H](NC(=O)c1ccc([N+](=O)[O-])cc1)C(=O)O)OCc1ccccc1",
    "recorded.number": 2.31
  },
  {
    "substance.smiles": "O=C(NCCCC[C@H](NC(=O)c1ccc(Cl)cc1Cl)C(=O)NO)OCc1ccccc1",
    "recorded.number": 1.12
  },
  {
    "substance.smiles": "O=C(NCCCC[C@H](NC(=O)c1cnccn1)C(=O)NO)OCc1ccccc1",
    "recorded.number": 1.99
  }
]

Return reported log10(IC50); argument: O=C(NCCCC[C@H](NC(=O)c1ccncc1)C(=O)NO)OCc1ccccc1
1.96

Likewise for O=C(NCCCC[C@H](NC(=O)c1ccc(Br)cc1)C(=O)NO)OCc1ccccc1 ?
2.05
